Where do these numbers come from? They come from patent US20240034783A1.

target: T1, human CLDN18.2 (human); test: flow cytometry; % positive tumor cells divided by % positive healthy stomach cells
T1 construct: also called huCLDN18.2; hCLDN18.2
Listed below: Ratio tumor/stomach (Mouse 1) values for each entry.

# BINDER, Ratio tumor/stomach (Mouse 1)
measured = [
    ("hCl1c (antibody, human IgG1, kappa, V domains shown, Humanized) VH: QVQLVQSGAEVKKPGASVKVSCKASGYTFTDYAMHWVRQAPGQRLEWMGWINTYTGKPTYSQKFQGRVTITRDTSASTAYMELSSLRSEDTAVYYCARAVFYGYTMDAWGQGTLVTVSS VL: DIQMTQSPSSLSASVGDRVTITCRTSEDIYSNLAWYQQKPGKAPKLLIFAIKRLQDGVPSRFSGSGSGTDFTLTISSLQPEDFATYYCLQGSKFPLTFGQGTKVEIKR", 290),
    ("hCl1a (antibody, human IgG1, kappa, V domains shown, Humanized) VH: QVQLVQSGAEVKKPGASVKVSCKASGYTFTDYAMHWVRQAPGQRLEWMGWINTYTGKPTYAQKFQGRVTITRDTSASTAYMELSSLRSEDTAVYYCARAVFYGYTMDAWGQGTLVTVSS VL: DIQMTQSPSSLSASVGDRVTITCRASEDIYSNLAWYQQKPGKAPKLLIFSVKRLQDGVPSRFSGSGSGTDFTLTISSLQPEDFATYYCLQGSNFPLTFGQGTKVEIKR", 28.3),
    ("IMAB362 (antibody, human IgG1, kappa, V domains shown, Control, chimeric IgG1, synthesized from the published chains; also called Claudiximab; Zolbetuximab) VH: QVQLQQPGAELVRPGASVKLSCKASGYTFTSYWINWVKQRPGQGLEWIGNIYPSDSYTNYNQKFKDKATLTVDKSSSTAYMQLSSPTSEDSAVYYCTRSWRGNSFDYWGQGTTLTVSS VL: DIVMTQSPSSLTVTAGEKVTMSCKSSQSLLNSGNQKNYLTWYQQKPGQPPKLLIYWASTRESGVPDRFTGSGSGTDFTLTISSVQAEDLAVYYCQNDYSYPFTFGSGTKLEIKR", 2.53),
]
